ASSAYED_SYSTEM: 5-HT1A (Homo sapiens, UniProt P08908)
Construct: expressed in transfected cells; host or cells: HEK-293
Sequence (P08908 whole entry): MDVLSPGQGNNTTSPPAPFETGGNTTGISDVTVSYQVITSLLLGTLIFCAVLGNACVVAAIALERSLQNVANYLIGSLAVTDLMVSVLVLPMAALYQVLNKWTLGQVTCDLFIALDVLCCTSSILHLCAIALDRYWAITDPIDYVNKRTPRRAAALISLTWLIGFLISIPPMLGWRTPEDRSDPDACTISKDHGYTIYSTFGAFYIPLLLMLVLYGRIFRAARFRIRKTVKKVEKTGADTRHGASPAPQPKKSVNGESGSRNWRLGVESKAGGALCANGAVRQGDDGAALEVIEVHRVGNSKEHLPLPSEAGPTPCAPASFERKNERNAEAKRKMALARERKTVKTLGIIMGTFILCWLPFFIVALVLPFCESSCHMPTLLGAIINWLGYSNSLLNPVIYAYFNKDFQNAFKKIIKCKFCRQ
PROCEDURE_SUMMARY: Radioligand binding assay, 5-HT1A ([3H]-8-OH-DPAT displacement)
MEASUREMENT_CONDITIONS: human receptor stably expressed in HEK-293
pKi: −log10 of the molar value.
READOUT_NAME: pKi

[[record]]
smiles_repr = "Cc1ccc(C(C)C)c(OCc2nc(N)nc(N3CCN(C)CC3)n2)c1"
data_value = 4.90


====

ASSAYED_SYSTEM: D2L (Homo sapiens, UniProt P14416)
Construct: expressed in transfected cells; host or cells: HEK-293
Sequence (P14416 whole entry): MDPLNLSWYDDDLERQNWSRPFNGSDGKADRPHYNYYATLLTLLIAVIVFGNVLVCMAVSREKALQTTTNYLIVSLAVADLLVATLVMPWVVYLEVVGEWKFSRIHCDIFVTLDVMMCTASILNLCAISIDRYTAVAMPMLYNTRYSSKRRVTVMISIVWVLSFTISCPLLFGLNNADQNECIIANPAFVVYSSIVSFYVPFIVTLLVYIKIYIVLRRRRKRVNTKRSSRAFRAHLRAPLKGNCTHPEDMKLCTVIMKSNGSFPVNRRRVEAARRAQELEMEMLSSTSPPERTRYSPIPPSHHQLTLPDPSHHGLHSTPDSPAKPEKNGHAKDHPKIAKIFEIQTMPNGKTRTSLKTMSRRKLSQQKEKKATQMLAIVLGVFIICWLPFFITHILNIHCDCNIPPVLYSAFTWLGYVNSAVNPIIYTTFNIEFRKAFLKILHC
PROCEDURE_SUMMARY: Radioligand binding assay, D2L ([3H]-raclopride displacement)
MEASUREMENT_CONDITIONS: human receptor stably expressed in HEK-293
READOUT_NAME: Ki (nM)

[[record]]
smiles_repr = "Cc1ccc(C(C)C)c(OCc2nc(N)nc(N3CCN(C)CC3)n2)c1"
data_value = 1090


====

PROCEDURE_SUMMARY: Parallel artificial membrane permeability assay (PAMPA)
Type: in vitro ADME
MEASUREMENT_CONDITIONS: PBS pH 7.4, 5 h, room temperature, breakpoint for permeable compounds Pe ≥ 1.5 × 10^−6 cm/s, read-out: Pe (permeability coefficient) ± SD
READOUT_NAME: Papp at 5 h, 200 µM

[[record]]
compound = "Cc1ccc(C(C)C)c(OCc2nc(N)nc(N3CCN(C)CC3)n2)c1 [Compound 4]"
data_value = "12.3 ×10⁻⁶ cm/s"

[[record]]
compound = "CN1CCN(c2nc(N)nc(Cc3cccc(Cl)c3)n2)CC1 [Compound 1]"
data_value = "23.6 ×10⁻⁶ cm/s"

[[record]]
compound = "Cc1cccc(Cc2nc(N)nc(N3CCN(C)CC3)n2)c1 [Compound 2]"
data_value = "19.9 ×10⁻⁶ cm/s"

[[record]]
compound = "CN1CCN(c2nc(N)nc(Cc3c[nH]c4ccccc34)n2)CC1 [Compound 3]"
data_value = "17.9 ×10⁻⁶ cm/s"


====

PROCEDURE_SUMMARY: Metabolic stability in human liver microsomes (HLMs)
MEASUREMENT_CONDITIONS: human, human liver microsomes
Collected half-life at 50 µM values appear next to each entry.
READOUT_NAME: half-life at 50 µM (h)

[[record]]
molecule = "Cc1ccc(C(C)C)c(OCc2nc(N)nc(N3CCN(C)CC3)n2)c1 [Compound 4]"
readout_name = "half-life at 50 µM"
unit_abbrev = "h"
data_value = 1.65

[[record]]
molecule = "Cc1cccc(Cc2nc(N)nc(N3CCN(C)CC3)n2)c1 [Compound 2]"
readout_name = "half-life at 50 µM"
unit_abbrev = "h"
data_value = 2.63

[[record]]
molecule = "CN1CCN(c2nc(N)nc(Cc3cccc(Cl)c3)n2)CC1 [Compound 1]"
readout_name = "half-life at 50 µM"
unit_abbrev = "h"
data_value = 1.38

[[record]]
molecule = "CN1CCN(c2nc(N)nc(Cc3c[nH]c4ccccc34)n2)CC1 [Compound 3]"
readout_name = "half-life at 50 µM"
unit_abbrev = "h"
data_value = 4.45


====

ASSAYED_SYSTEM: 5-HT7 (Homo sapiens)
Construct: expressed in transfected cells; host or cells: HEK-293
Sequence (P34969 1-432): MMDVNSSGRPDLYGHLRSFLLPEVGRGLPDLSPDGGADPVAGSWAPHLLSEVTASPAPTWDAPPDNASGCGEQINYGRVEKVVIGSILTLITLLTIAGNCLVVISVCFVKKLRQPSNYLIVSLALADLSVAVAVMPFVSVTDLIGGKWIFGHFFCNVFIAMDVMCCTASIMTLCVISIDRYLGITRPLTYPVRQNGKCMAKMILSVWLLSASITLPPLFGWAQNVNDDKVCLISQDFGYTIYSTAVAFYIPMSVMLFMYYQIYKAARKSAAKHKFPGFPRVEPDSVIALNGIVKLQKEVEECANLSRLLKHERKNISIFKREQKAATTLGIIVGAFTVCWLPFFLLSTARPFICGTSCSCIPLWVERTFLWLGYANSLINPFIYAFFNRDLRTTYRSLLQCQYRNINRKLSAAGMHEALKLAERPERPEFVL
PROCEDURE_SUMMARY: Radioligand binding assay, 5-HT7 ([3H]-5-CT displacement)
MEASUREMENT_CONDITIONS: human receptor stably expressed in HEK-293
READOUT_NAME: Ki (µM)

[[record]]
smiles_repr = "Cc1ccc(C(C)C)c(OCc2nc(N)nc(N3CCN(C)CC3)n2)c1"
assayed_system = "5-HT7 (Homo sapiens)"
unit_abbrev = "µM"
data_value = 12

